Source listed as patent US20200102387A1.

target-system: T1, human SIRPγ-Fc (human)
T1 construct: a signal peptide may be part of the entry
experiment-notes: BLI Octet, antigen-Fc on biosensor;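 also: antigen captured on the biosensor tip and then immersed in solutions of the test antibodies, which act as the analyte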
readout: Kd (nM)
Give just the numeric value; nM need not be written.

Entry under review: SIRPAB-4 (antibody, human IgG1, kappa, V domains shown) VH: QVQLQESGPGLVKPSQTLSLTCTVSGGSISSGSPYWSWIRQHPGKGLEWIGYIYASGFTYYNPSLKSRVTISVDTSKNQFSLKLSSVTAADTAVYYCAREGYHSGMDVWGQGTTVTVSS VL: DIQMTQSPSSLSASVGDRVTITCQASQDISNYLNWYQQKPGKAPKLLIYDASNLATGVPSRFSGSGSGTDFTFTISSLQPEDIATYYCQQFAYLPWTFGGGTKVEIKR . Reported Kd?
0.144

Entry under review: SIRPAB-10 (antibody, human IgG1, kappa, V domains shown) VH: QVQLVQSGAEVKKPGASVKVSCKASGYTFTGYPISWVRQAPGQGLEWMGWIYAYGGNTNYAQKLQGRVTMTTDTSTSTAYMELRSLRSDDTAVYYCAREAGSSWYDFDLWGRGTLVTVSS VL: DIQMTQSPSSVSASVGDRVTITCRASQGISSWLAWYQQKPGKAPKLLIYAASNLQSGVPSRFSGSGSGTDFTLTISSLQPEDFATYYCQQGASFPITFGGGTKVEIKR . Reported Kd?
0.85
